test system: K4 kissing-loop RNA reporter; test: apparent KD of K4 kissing-loop reporter; higher = weaker reporter binding; details: Eterna round: R107; input ligand: none;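 further: bound reporter read as fluorescence of individual clusters on recovered sequencing chips by microscopy, with normalized cluster intensities fitted with a binding model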
As shown below, each of these sequences has a reported apparent KD of K4 kissing-loop reporter value.
Entry rule: numbers only, all in µM.

Example entries and their recorded answers appear below.
| seqText | readoutUnit | apparent KD of K4 kissing-loop reporter |
| --- | --- | --- |
| UAAUUUAUGUCUUUAAUUUUAUUAUCAGAUACCAGUGAUUUAUGACACCCUUGGCAGCUGUAUUGAGUGAUGUUCUUAUAUUAAA [JR_Nu_ExcTheophyA_Sub023] | µM | 0.118 |
| UGUCUUUUUUUGAUGUUUUUUGUAUAAUGGCAGGAUAUCGUAGAGGCGAGAAGGGCUUUUAUGCGUUAUGAGUGAUGUUUGUAGG [vevvmullin] | µM | 0.302 |
| CUUAUUUCUCGCUAUGAUGUUAGUUGAGCCAAGGAUAUUAAUGAAUUAAGAAGGUGGGUUUUUAAGUGAUGUUUUGAGACUGGCA [theeternabot_exclusion_KL_FMN_A_27] | µM | 0.863 |
| GCCGUACGCAUGGAUACCAGACUACCAUUGGAAACAAUGUGUCCGGUAGUGAUGUUACCUGUCCCUUGGCAGCCAUGCGUACGGC | µM | 0.702 |
| CCGCUACCCUCAGGAUAUUAAAUAUUAGUGAUGUUAAUAAACCGAUGGCGAAAGCCAUCGGUAUGUUAAGAAGGGAGGGUAGCGG | µM | 0.974 |
| CCUAUCUCAUACGAUACCAGUCAAAUAAAUUAUAACGAGUGAUGUUCGAAAUGCCAUCACGACCCUUGGCAGCGUAUGGGAUAGG [Ex Theophylline B K4 1] | µM | 0.212 |
| AUUUUGGUUUAGAGUGAUGUUCCUUGUAUUCGAGGACCGGUACGGCCGCCACUCGGAUAGAAAAGAAAAGAAAUGUUUGAUUUUU [BDazzled - #8 SS Tryptophan A] | µM | 0.458 |
| AAUAAAAUCACGGCCGCCACUGAUGCUAAUAUUAGCAGUGAUGUUGCUAUGUAGAUUUUAUUUAACAGGACCGGGUGAAUAUUUA [JR_SSTryptoB_Sub025] | µM | 0.162 |

Field: next sequence
Data request: Please report the measured apparent KD of K4 kissing-loop reporter for CGGAUGUAGUGAUGUUAUAUUAGAUGUAGACGAGGACCGGUACGGCCGCCACUCGUAACGGCUGCUAGCGCGUUGCGAGGUGUGC [ExTryptoA.Cl]
Data returned: 0.721

* * *

test system: MS2 coat protein; test: apparent KD of MS2 coat protein; designed switch direction (-1 OFF switch, 1 ON switch): -1; higher = weaker reporter binding; conditions: input ligand: microRNA oligo, concentration not stated
Entries annotated with measured apparent KD of MS2 coat protein

// solved cases for apparent KD of MS2 coat protein follow
| seqText | apparent KD of MS2 coat protein |
| --- | --- |
| CAAUAAAAGCGAGGAUAUCCGUAUAAAGAUACAGGAGAAGGUGCGGGUACUCCUCACAUGAGGAUCACCCAUGUAAGAAAUAAA [Erxeraso] (Eterna round: R96, puzzle: Exclusion NG 1) | 33.7 nM |
| AAACGGCAGGGAGGAUAUGCUUACCUGGGUCGUCUUCGAACAUGAGGAUCACCCAUGUAGUCGACGCAGAAGGCCCUCAAAGCC [JL ViennaUCT Ontiis mod 2] (Eterna round: R96, puzzle: Exclusion NG 2) | 17.1 nM |
| AACAGUACAGGAUAUACAUGAGGAUCACCCAUGUGAGAUUUAAGUGGCGUACCACAAAGUAGAAGGGUACUGGA [JL Maslow Revisted mod 5] (Eterna round: R96, puzzle: Exclusion 3) | 29.6 nM |
| UCGACGUCGUCAGGAUAUAGUCUUAAUGUCAUGCUUUUGUUCGUACAUGAGGAUCACCCAUGUGGCUAGAAGGGACUAAAGAUU [JR_ExcNG2_Sub015] (Eterna round: R96, puzzle: Exclusion NG 2) | 10.1 nM |
| GUCAGCUCGUGAGGAUAUGAACAUGAGGAUCACCCAUGUAAGAUCAAGCUGCUUCGGCAGCAAGUUCAGAAGGCACGAGCUGAC [ENG2/10-A1] (Eterna round: R96, puzzle: Exclusion NG 2) | 85.8 nM |

Data request: // fetch apparent KD of MS2 coat protein for AGAAACUCAAGAGGAUAUCACAUGAGGAUCACCCAUGUAUAGCGCGCUAUGCUAGUCCUCGUAUUUGAGAAGGUUUGAUAAAUG [Mat - Exclusion NG 2 - Mod of JL - D78] (Eterna round: R96, puzzle: Exclusion NG 2) ; system: MS2 coat protein
Data returned: 14.2 nM

Data request: Jot down apparent KD of MS2 coat protein (MS2 coat protein) of GCAGCAUUGUUUACUAACAGUUACAUGAGGAUCACCCAUGUUCAGGAUAUGGUCUGGAUUACAGGCCAGAAGGGAACAAGCUGC [Eli exng3 - 031] (Eterna round: R96, puzzle: Exclusion NG 3) .
Data returned: 9.39 nM

Data request: Fill in: apparent KD of MS2 coat protein on MS2 coat protein, entry AGCUGUGGCCAAGGAUAUCUAGCCUUAAAUACCGACGUAUAGUCGGACAUGAGGAUCACCCAUGUGGAGAAGGUGGUCUCAGCA [Eli eng2 - 044] (Eterna round: R96, puzzle: Exclusion NG 2)
Data returned: 53 nM

Data request: Please report the measured apparent KD of MS2 coat protein for AUAAAUCAUGUAGGAUAUGCGUAGCGAAGCUAUGCAGAAGGACAUGAGGAUCACCCAUGUCUUUCCGUCUGCGAACAGACGGAA [Mat - Exclusion NG 1 - Mod of JL - D43] (Eterna round: R96, puzzle: Exclusion NG 1) tested on MS2 coat protein.
Data returned: 20 nM

Data request: With MS2 coat protein as the test system, provide measured apparent KD of MS2 coat protein for this sequence: AAAAAACAUGAGGAUCACCCAUGUGAGGAUAUGCUAAAAAAAUCCGCAUGAAAAAAUAGCAGAAGGCACAUAAA [PK2] (Eterna round: R96, puzzle: Exclusion 1)
Data returned: 27.2 nM

Data request: Param request: apparent KD of MS2 coat protein | system MS2 coat protein | item GCAGCAACUCUCACUAACUAAACAUGAGGAUCACCCAUGUCUCAGGAUAUGGUCUGGAUUACAGGCCAGAAGGGAGAAAGCUGC [Eli exng3 - 040] (Eterna round: R96, puzzle: Exclusion NG 3)
Data returned: 10.6 nM
